Cited source: patent US9845330B2

Assay: In vivo pharmacokinetics, oral, mice
Set-up: species or system Balb/c mice
Settings: 5 mg/kg oral, plasma
Description: Compounds were administered orally to mice (Balb/c mice) at a dose of 5 mg/kg as a suspension in 0.5% CMC and Tween 80. Samples were derived from plasma at different time points i.e. 0.16 h, 0.5 h, 1 h, 2 h, 4 h, 6 h, 8 h and 24 h, which were then analysed by LC-MS/MS to generate the required pharmacokinetic parameters.
READOUT: Vdarea (L/kg)
Provide the reading as a plain figure in L/kg.

COMPOUND	OUTPUT_UNIT	Vdarea
C[C@]1(COc2cccc(-n3cc(COc4ccc(OC(F)(F)F)cc4)nn3)c2)Cn2cc([N+](=O)[O-])nc2O1	L/kg	0.25
C[C@]1(COc2ccc(-c3cc(COc4ccc(F)cc4)on3)cc2)Cn2cc([N+](=O)[O-])nc2O1	L/kg	1.54
C[C@]1(COc2ccc(-c3cc(COc4ccc(OC(F)(F)F)cc4)on3)cc2)Cn2cc([N+](=O)[O-])nc2O1	L/kg	0.13
C[C@]1(COc2ccc(-n3cc(COc4ccc(OC(F)(F)F)cc4)nn3)cc2)Cn2cc([N+](=O)[O-])nc2O1	L/kg	0.36

Problem: Given the compound C[C@]1(COc2ccc(N3CCC(Oc4ccc(OC(F)(F)F)cc4)CC3)cc2)Cn2cc([N+](=O)[O-])nc2O1 [OPC-67683, reference compound] , what is its reported Vdarea?
Result: 0.76
